molecular target: human IL-6 (human, UniProt P05231 30-212); experiment: SPR Biacore, supernatant, Protein A capture, 37 C
Sequence (P05231 30-212 limits assumed): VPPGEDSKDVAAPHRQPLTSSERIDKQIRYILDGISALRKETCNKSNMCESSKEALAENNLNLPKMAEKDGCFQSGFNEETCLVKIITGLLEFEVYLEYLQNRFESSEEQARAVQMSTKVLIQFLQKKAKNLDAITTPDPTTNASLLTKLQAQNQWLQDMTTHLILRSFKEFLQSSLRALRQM
For each entry below, report its koff value.
Answer with the number, then the unit.

Task: What value of koff has been reported for the following binder? Anti-IL-6 antibody, heavy chain S35H, G66D, Q99A / light chain WT (antibody, IgG1, V domains shown, IgG1; variable domains only) VH: EVQLVESGGGLVQPGGSLRLSCAASGFTFSPFAMHWVRQAPGKGLEWVAKISPGGSWTYYSDTVTDRFTFSLDTSKSTAYLQMNSLRAEDTAVYYCARALWGYYALDIWGQGTLVTVSS VL: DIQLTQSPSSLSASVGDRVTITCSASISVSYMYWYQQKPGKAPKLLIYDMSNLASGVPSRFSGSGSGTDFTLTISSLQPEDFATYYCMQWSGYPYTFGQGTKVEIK
Result: 0.00132 s⁻¹

Task: Let us now turn to Anti-IL-6 antibody, heavy chain S35H, G66D, L100H / light chain WT (antibody, IgG1, V domains shown, IgG1; variable domains only) VH: EVQLVESGGGLVQPGGSLRLSCAASGFTFSPFAMHWVRQAPGKGLEWVAKISPGGSWTYYSDTVTDRFTFSLDTSKSTAYLQMNSLRAEDTAVYYCARQHWGYYALDIWGQGTLVTVSS VL: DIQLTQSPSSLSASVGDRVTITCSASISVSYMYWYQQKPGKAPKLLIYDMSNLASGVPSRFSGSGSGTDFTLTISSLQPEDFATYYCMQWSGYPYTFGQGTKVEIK
Result: 0.000498 s⁻¹

Task: Repeat with Anti-IL-6 antibody, heavy chain S35H, G66D, L100Q / light chain M32L, M50D, N52S, M88Q (antibody, IgG1, V domains shown, IgG1; variable domains only; VL is variant III) VH: EVQLVESGGGLVQPGGSLRLSCAASGFTFSPFAMHWVRQAPGKGLEWVAKISPGGSWTYYSDTVTDRFTFSLDTSKSTAYLQMNSLRAEDTAVYYCARQQWGYYALDIWGQGTLVTVSS VL: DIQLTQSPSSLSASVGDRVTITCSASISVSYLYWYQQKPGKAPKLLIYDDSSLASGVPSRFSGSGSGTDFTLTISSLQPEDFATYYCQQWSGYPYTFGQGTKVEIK
Result: 0.000734 s⁻¹
